- TARGET OF ASSAY: UniProtKB P29475
- METHOD DESCRIPTION: nNOS enzyme assay (hemoglobin capture assay)
- Type: biochemical
- CONDITION DESCRIPTION: at 100 μM; read-out: Percent Inhibition of NOS, nNOS
Counter-ions that a name gives are not always drawn.
TEST READOUT: inhibition at 100 µM (%)

Observe how each entry below is paired with its result.
Identify measured inhibition at 100 µM corresponding to `N=C(Nc1ccc2c(c1)C(=O)Nc1ccccc1N2)SCc1ccccc1`
48

Identify measured inhibition at 100 µM corresponding to `N=C(Nc1ccc2c(c1)C(=O)Nc1ccccc1N2)SCc1ccc2ccccc2c1`
21

A. N=C(Nc1ccc2c(c1)C(=O)Nc1ccccc1O2)c1cccs1
B. N=C(Nc1ccc2c(c1)C(=O)Nc1ccccc1N2)c1cccs1 [Example 19, hydrobromide]
C. O=C1Nc2ccccc2Oc2ccc(NC(=S)Nc3ccccc3)cc21
Order the entries by their reported inhibition at 100 µM, beginning at the minimum. List labels; respect the requested ordering.
C, A, B

###

- TARGET OF ASSAY: iNOS (Homo sapiens, UniProt P35228)
pIC50: −log10 of the molar value. Structures can show the parent of a compound that is named as a salt.
TEST READOUT: pIC50

I. O=C(NC(=S)Nc1ccc2c(c1)C(=O)Nc1ccccc1O2)c1ccccc1 [Example 15]
II. CC(=N)Nc1ccc2c(c1)C(=O)Nc1ccccc1N2 [Example 11, hydrobromide]
For the two items I and II , which reports the higher pIC50 value? Mark your selection by writing its label.
I
(I: 3.70, II: 3.30)

These entries and their values trace back to patent US6919328B1.
